System: Strep. pyogenes
Experiment: in vivo activity in mice infected with a lethal inoculum of Strep. pyogenes
Settings: Streptococcus pyogenes, oral, multiple dosing, read-out: IN VIVO Strep. pyogenes, number of survivors among the treated animals, PO (data in parenthesis)
Description: In determining the in vivo activity of the quinoxaline-1,4-dioxides of this invention, the test compound is administered to mice which have been infected by […] injection of a lethal inoculum of pathogenic bacteria. The test compound is administered using a multiple dosing regimen and using either the oral (PO) or the subcutaneous (SC) route. […] At the end of the test, the activity of the compound is assessed by counting the number of survivors among the treated animals. […]
RECORDED ENDPOINT: responders at 50 mg/kg (%)
Please reply with the bare figure in % and do not write the unit itself.

Asked: Given CCNC(=O)c1c(CS(=O)(=O)CCCN2CCCCC2)[n+]([O-])c2ccccc2[n+]1[O-] [NHCH2 CH3; drawing 26; H] , state its recorded responders at 50 mg/kg.
Given back: 90

Asked: Dear colleague, I am looking for the recorded responders at 50 mg/kg of the following compound: CCNC(=O)c1c(CS(=O)(=O)CCO)[n+]([O-])c2ccccc2[n+]1[O-]
Given back: 80

Asked: For CCNC(=O)c1c(CS(=O)(=O)CCCO)[n+]([O-])c2ccccc2[n+]1[O-] , what is its reported responders at 50 mg/kg?
Given back: 20

Asked: Tell me the measured responders at 50 mg/kg of CCCNC(=O)c1c(CSCCO)[n+]([O-])c2ccccc2[n+]1[O-] , please.
Given back: 30

Asked: Item CCCNC(=O)c1c(CS(=O)(=O)CCCOC(C)=O)[n+]([O-])c2ccccc2[n+]1[O-] has what recorded responders at 50 mg/kg?
Given back: 0

Asked: Name the reported responders at 50 mg/kg value associated with the compound O=C(NCc1ccccc1)c1c(CS(=O)(=O)CCO)[n+]([O-])c2ccccc2[n+]1[O-]
Given back: 20

Asked: Quick check: responders at 50 mg/kg of CN(C)C(=O)c1c(CS(=O)(=O)CCCN2CCOCC2)[n+]([O-])c2ccccc2[n+]1[O-] [N(CH3)2; drawing 19; H] ?
Given back: 10

Asked: I am curious: what responders at 50 mg/kg value has been reported for O=C(NCCO)c1c(CS(=O)(=O)CCO)[n+]([O-])c2ccccc2[n+]1[O-] ?
Given back: 10

Asked: What value of measured responders at 50 mg/kg is listed for CN(C)CCCS(=O)(=O)Cc1c(C(=O)N(C)C)[n+]([O-])c2ccccc2[n+]1[O-] ?
Given back: 60

Asked: Give the measured responders at 50 mg/kg of CC(=O)OCCCSCc1c(C(=O)NCCO)[n+]([O-])c2ccccc2[n+]1[O-] .
Given back: 30

Asked: Return reported responders at 50 mg/kg; argument: CNC(=O)c1c(CSCCO)[n+]([O-])c2ccccc2[n+]1[O-]
Given back: 60

Asked: I am curious: what responders at 50 mg/kg value has been reported for O=C(NCCCO)c1c(CS(=O)(=O)CCO)[n+]([O-])c2ccccc2[n+]1[O-] ?
Given back: 50

Asked: Given O=C(NCCCCc1ccccc1)c1c(CS(=O)(=O)CCO)[n+]([O-])c2ccccc2[n+]1[O-] , state its recorded responders at 50 mg/kg.
Given back: 10

Asked: // returns reported responders at 50 mg/kg for input CNC(=O)c1c(CS(=O)(=O)CCCN2CCOCC2)[n+]([O-])c2ccccc2[n+]1[O-] [NHCH3; drawing 18; H]
Given back: 70
